ENDPOINT NAME: Ki (nM)
// return numeric value only (unit: nM, not printed)

# Ki measured on UniProt P03956 for item CCCCCCCC/C=C/CCCCCCCC(=O)O [acide élaïdique] = 2700

###

MEASURED ON: MMP-9 (Homo sapiens, UniProt P14780)
Sequence (P14780 94-707): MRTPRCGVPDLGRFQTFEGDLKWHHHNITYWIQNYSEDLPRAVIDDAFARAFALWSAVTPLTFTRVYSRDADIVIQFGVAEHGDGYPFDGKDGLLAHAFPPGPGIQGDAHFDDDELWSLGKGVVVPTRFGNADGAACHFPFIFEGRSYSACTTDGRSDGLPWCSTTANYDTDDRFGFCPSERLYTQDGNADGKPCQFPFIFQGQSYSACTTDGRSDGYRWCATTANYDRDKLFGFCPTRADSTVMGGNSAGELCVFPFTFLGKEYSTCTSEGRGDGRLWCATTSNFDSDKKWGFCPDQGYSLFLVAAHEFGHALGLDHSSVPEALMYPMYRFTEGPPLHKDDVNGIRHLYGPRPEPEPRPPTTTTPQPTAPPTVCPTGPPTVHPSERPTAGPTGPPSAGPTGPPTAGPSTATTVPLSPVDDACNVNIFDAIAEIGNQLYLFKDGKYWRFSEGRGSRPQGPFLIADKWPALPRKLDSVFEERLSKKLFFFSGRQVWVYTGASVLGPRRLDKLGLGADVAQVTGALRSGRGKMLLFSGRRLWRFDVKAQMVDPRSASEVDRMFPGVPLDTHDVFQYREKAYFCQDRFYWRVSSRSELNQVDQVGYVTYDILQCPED
ENDPOINT NAME: Ki (µM)
Number only, in µM; omit the unit.

The compound listed as CCCCCCCC/C=C/CCCCCCCC(=O)O [acide élaïdique] shows Ki equal to 5.8

Entry under test: CC/C=C/C=C/C=C/C=C\CCCCCCCC(=O)O [acide cis-parinarique] . Its Ki was 14

Recorded result, CC/C=C/C=C/C=C/C=C/CCCCCCCC(=O)O [acide trans-parinarique] , Ki: 1.9
